Biological target: T1, GFP-9S library array, motif 4 ND N98G;D124W (synthetic construct, N98G;D124W)
T1 chain: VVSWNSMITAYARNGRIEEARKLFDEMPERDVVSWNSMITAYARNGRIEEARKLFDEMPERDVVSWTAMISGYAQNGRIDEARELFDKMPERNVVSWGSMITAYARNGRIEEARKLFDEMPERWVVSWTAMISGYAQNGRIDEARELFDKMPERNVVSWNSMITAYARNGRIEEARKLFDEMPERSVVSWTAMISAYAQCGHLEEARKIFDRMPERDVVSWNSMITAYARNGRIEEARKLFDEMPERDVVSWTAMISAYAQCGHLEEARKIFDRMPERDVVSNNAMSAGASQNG
Experiment: high-throughput RNA pulldown from lysate on Ni-NTA beads; HRP: 50 mM Tris pH 8, 150 mM NaCl, 1 mM beta-mercaptoethanol, 50 ug/ml BSA, 3 ug/ml yeast RNA, 0.5% heparin; ITC and FP: Tris pH 8, 200 mM KCl, 5% glycerol; MST: 50 mM Tris pH 8, 200 mM NaCl, 1 mM DTT, BSA, heparin, 0.05% Tween 20
Settings: tags: N-terminal His-eGFP; label: 5' IRDye 800CW
Would you mind telling me the reported pKd of each entry?
Please treat pKd as minus the base-10 logarithm of the molar concentration.

[in] Look up pKd for this binder: AUUAAACGUGA (ssRNA) [IR-rpoA-A]
[out] 7.13

[in] // query pKd value for entry AUUAUACGUGA (ssRNA) [IR-rpoA-U]
[out] 7.17
